Tested on: Aβ40 in conditioned medium of cells stably expressing Amyloid Precursor Protein (APP)
Test details: In vitro BACE cell-based assay (Aβ40 in conditioned medium, sandwich ELISA)
Condition notes: Homo sapiens, HEK293; average IC50, HEK cell assay; read-out: HEK cell assay
Value type: IC50

| Molecule smiles | Result |
| --- | --- |
| NC1=N[C@@]2(CO1)c1cc(-c3cccnc3F)ccc1Oc1c2cc(-c2ccccc2)nc1F | 5 nM |

----------
// values below are reported IC50
Target of assay: Beta Secretase enzyme (BACE) (Homo sapiens, UniProt P56817)
Sequence (P56817 46-501, species assumed): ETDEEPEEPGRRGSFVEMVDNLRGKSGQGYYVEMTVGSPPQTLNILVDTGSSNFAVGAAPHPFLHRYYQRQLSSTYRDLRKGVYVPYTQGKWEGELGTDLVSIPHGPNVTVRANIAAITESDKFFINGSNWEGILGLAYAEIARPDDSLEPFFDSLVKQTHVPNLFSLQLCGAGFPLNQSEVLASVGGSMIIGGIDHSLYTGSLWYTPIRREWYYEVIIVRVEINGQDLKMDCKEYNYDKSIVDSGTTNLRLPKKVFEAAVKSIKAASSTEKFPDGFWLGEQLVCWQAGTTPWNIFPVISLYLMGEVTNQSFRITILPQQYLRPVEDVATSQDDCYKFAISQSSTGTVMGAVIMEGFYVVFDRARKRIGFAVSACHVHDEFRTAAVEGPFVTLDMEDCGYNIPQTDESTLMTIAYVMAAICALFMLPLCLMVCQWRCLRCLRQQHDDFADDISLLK
Test details: In vitro enzymatic BACE FRET (fluorescence resonance energy transfer) assay
Type: biochemical
Condition notes: average IC50, enzyme assay; read-out: BACE 1 FRET assay

| Molecule smiles | Units text | IC50 |
| --- | --- | --- |
| NC1=N[C@@]2(CO1)c1cc(-c3cccnc3)ccc1Oc1c(F)cc(-n3cccn3)cc12 | nM | 3.8 |
| Cn1cc(-c2cc3c(cn2)Oc2ccc(-c4ccc(F)nc4)cc2[C@@]32COC(N)=N2)cn1 | nM | 10.8 |
| N#Cc1ccncc1-c1ccc2c(c1)[C@@]1(COC(N)=N1)c1cc(C3=CCOCC3)ncc1O2 | nM | 10.4 |
| COCCN(C)c1cc(F)c2c(c1)[C@]1(COC(N)=N1)c1cc(-c3cccnc3F)ccc1O2 | nM | 7.5 |
| CC#Cc1cncc(-c2ccc3c(c2)[C@@]2(COC(N)=N2)c2cc(OC)cc(F)c2O3)n1 | nM | 92.6 |
| CC1(C#Cc2cnc3c(c2)[C@]2(COC(N)=N2)c2cc(-c4ccc(F)c(C#N)c4)ccc2O3)COC1 | nM | 5.6 |
| CC1(C#Cc2cc3c(cn2)Oc2ccc(-c4cncc(F)c4)cc2[C@@]32COC(N)=N2)COC1 | nM | 9.2 |

----------
System: Aβ40 in conditioned medium of cells stably expressing Amyloid Precursor Protein (APP)
Test details: In vitro BACE cell-based assay (Aβ40 in conditioned medium, sandwich ELISA)
Condition notes: Homo sapiens, HEK293, average IC50; read-out: HEK cell assay
pIC50: −log10 of the molar value.
Quick reference: pIC50 of the listed items.

| Molecule | Target of assay | pIC50 |
| --- | --- | --- |
| NC1=NC2(CO1)c1cc(-c3cccnc3F)ccc1Oc1nc(F)c(-c3cccnc3F)cc12 (stereo not drawn) | Aβ40 in conditioned medium of cells stably expressing Amyloid Precursor Protein (APP) | 6.91 |
| COc1nc(-c2ccnc(F)c2)cc2c1Oc1ccc(-c3cccnc3)cc1[C@@]21COC(N)=N1 | Aβ40 in conditioned medium of cells stably expressing Amyloid Precursor Protein (APP) | 7.96 |
| NC1=N[C@]2(CO1)c1cc(C3=CCCOC3)cc(F)c1Oc1ccc(-c3cncnc3)c(F)c12 | Aβ40 in conditioned medium of cells stably expressing Amyloid Precursor Protein (APP) | 7.07 |
| NC1=N[C@]2(CO1)c1cc(-c3cccnc3)ccc1Oc1c2cc(-c2ccnc(F)c2)c(F)c1F | Aβ40 in conditioned medium of cells stably expressing Amyloid Precursor Protein (APP) | 5.73 |
| CC1(C)C=C(c2cc3c(cn2)Oc2ccc(-c4ccc(F)nc4)cc2[C@@]32COC(N)=N2)CCO1 | Aβ40 in conditioned medium of cells stably expressing Amyloid Precursor Protein (APP) | 7.79 |
| NC1=N[C@]2(CS1)c1cc(-c3cccnc3F)ccc1Oc1c2cc(-c2ccnc(F)c2)nc1F | Aβ40 in conditioned medium of cells stably expressing Amyloid Precursor Protein (APP) | 5.93 |
| CC(C)(F)COc1cc(F)c2c(c1)[C@]1(CSC(N)=N1)c1cc(-c3cccnc3F)ccc1O2 | Aβ40 in conditioned medium of cells stably expressing Amyloid Precursor Protein (APP) | 7.82 |
| NC1=N[C@@]2(CO1)c1cc(-c3cccc(Cl)c3)ccc1Oc1ncc(-c3cnccn3)cc12 | Aβ40 in conditioned medium of cells stably expressing Amyloid Precursor Protein (APP) | 7.75 |
| COC(C)(C)COc1cnc2c(c1)[C@@]1(COC(N)=N1)c1cc(-c3cccc(F)c3F)ccc1O2 | Aβ40 in conditioned medium of cells stably expressing Amyloid Precursor Protein (APP) | 5.44 |
| CC(C)(C#N)COc1cc2c(c(F)c1F)Oc1ccc(-c3cccnc3)cc1[C@]21COC(N)=N1 | Aβ40 in conditioned medium of cells stably expressing Amyloid Precursor Protein (APP) | 6.11 |
| COc1cc(F)c2c(c1)[C@]1(COC(N)=N1)c1cc(-c3cncc(C(F)(F)F)c3)ccc1O2 | Aβ40 in conditioned medium of cells stably expressing Amyloid Precursor Protein (APP) | 6.71 |
| NC1=N[C@@]2(CO1)c1cc(-c3cccnc3)ccc1Oc1c(F)cc(N3CCCC3=O)cc12 | Aβ40 in conditioned medium of cells stably expressing Amyloid Precursor Protein (APP) | 7.52 |
| CC1(C)CC(c2cnc3c(c2)[C@]2(COC(N)=N2)c2c(ccc(-c4cccnc4F)c2F)O3)=CCO1 | Aβ40 in conditioned medium of cells stably expressing Amyloid Precursor Protein (APP) | 8.10 |
| NC1=N[C@@]2(CO1)c1cc(-c3cccnc3F)ccc1Oc1c2cc(C#Cc2cccnc2)nc1F | Aβ40 in conditioned medium of cells stably expressing Amyloid Precursor Protein (APP) | 7.13 |
| CC(C)(C)C#Cc1cnc2c(c1)[C@@]1(COC(N)=N1)c1c(ccc(-c3cncnc3)c1F)O2 | Aβ40 in conditioned medium of cells stably expressing Amyloid Precursor Protein (APP) | 6.27 |

----------
Target of assay: Beta Secretase enzyme (BACE) (Homo sapiens)
Test details: In vitro enzymatic BACE FRET (fluorescence resonance energy transfer) assay
Type: biochemical
Condition notes: average IC50, enzyme assay; read-out: BACE 1 FRET assay
Value type: IC50 (nM)

| Compound | Units text | Numeric readout |
| --- | --- | --- |
| Cc1ccn(-c2cc(F)c3c(c2)[C@]2(COC(N)=N2)c2cc(-c4cccnc4F)ccc2O3)n1 | nM | 2.8 |
| NC1=N[C@@]2(CS1)c1cc(-c3cccnc3F)ccc1Oc1cnc(C3=CCOCC3)cc12 | nM | 0.3 |
| Cc1cncc(-c2ccc3c(c2)[C@@]2(COC(N)=N2)c2cc(OCC4(C)COC4)c(F)cc2O3)c1 | nM | 23.6 |
| COc1ccc2c(c1)[C@@]1(COC(N)=N1)c1cc(-n3nccc3C)cc(F)c1O2 | nM | 430 |
| NC1=N[C@@]2(CS1)c1cc(-c3cccnc3F)ccc1Oc1c(F)cc(C3=CCOCC3)cc12 | nM | 0.1 |
| Cn1cc(-c2cnc3c(c2)[C@]2(CSC(N)=N2)c2cc(-c4cccnc4)ccc2O3)cn1 | nM | 3.7 |
| NC1=N[C@]2(CO1)c1cc(-c3cccnc3)ccc1Oc1c2cc(C2=CCOCC2)c(F)c1F (single isomer, unassigned) | nM | 15.2 |
| NC1=N[C@@]2(CO1)c1cc(-c3cncnc3)ccc1Oc1c(F)cc(-n3cccn3)cc12 | nM | 3.7 |
| CN(C)c1cc2c(cn1)Oc1ccc(-c3cccnc3F)cc1C21COC(N)=N1 (racemic) | nM | 22.4 |
| Cc1cc(-c2cc(F)c3c(c2)[C@]2(COC(N)=N2)c2cc(OCC4(C)COC4)ccc2O3)cnc1F | nM | 41.6 |
| CC1(C)C=C(c2cnc3c(c2)[C@]2(COC(N)=N2)c2c(ccc(-c4cncnc4)c2F)O3)CCO1 | nM | 2.8 |
| COc1cc(F)c2c(c1)C1(COC(N)=N1)c1cc(Br)c(F)cc1O2 (stereo not drawn) | nM | 7240 |
| NC1=N[C@]2(CO1)c1cc(-c3cccnc3F)ccc1Oc1nc(F)c(C3=CCCOC3)cc12 | nM | 137 |
| CC(C)(O)C#Cc1cc(F)c2c(c1)[C@]1(COC(N)=N1)c1cc(-c3cccnc3F)ccc1O2 | nM | 0.8 |
| N#CC1CN(c2cc3c(cn2)Oc2ccc(-c4cccnc4)cc2[C@@]32COC(N)=N2)C1 | nM | 28.7 |
| CC(C)(C)C#Cc1ccc2c(c1)[C@@]1(COC(N)=N1)c1cc(-c3ccnc(F)c3)ncc1O2 | nM | 23 |
| CC#Cc1cncc(-c2ccc3c(c2)[C@@]2(COC(N)=N2)c2cc(C4=CCCOC4)nc(OC)c2O3)c1 | nM | 0.5 |
| NC1=N[C@@]2(CS1)c1cc(-c3cccc(Cl)c3)ccc1Oc1cnc(C3=CCOCC3)cc12 | nM | 0.7 |
| NC1=N[C@@]2(CO1)c1cc(-c3cnccn3)ccc1Oc1c(F)cc(OCC3CCOCC3)cc12 | nM | 5.4 |
| NC1=N[C@]2(CO1)c1cc(-c3cccnc3F)ccc1Oc1cc(OC(F)(F)F)c(-c3ccnc(F)c3)cc12 | nM | 8220 |
| N#Cc1cccc(-c2ccc3c(c2)[C@@]2(COC(N)=N2)c2cc(N4CCC(F)(F)C4)ncc2O3)c1 | nM | 1 |
| NC1=N[C@@]2(CO1)c1cc(-c3ccc(F)cc3)ccc1Oc1cnc(-c3cncnc3)cc12 | nM | 136 |
| CC(C)(C#N)COc1cc(F)c2c(c1)[C@]1(COC(N)=N1)c1cc(-c3c(F)ccnc3F)ccc1O2 | nM | 2 |
| NC1=N[C@@]2(CO1)c1cc(-c3cncc(Cl)c3)ccc1Oc1c(F)cc(N3CCOCC3)cc12 | nM | 0.8 |
| CC1(C)C=C(c2cnc3c(c2)[C@@]2(COC(N)=N2)c2c(ccc(-c4cccnc4F)c2F)O3)CCO1 | nM | 530 |
| NC1=N[C@@]2(CO1)c1cc(-c3cnccc3F)ccc1Oc1c(F)cc(C3CCOCC3)cc12 | nM | 3 |
| C[C@H]1COCCN1c1cc(F)c2c(c1)[C@]1(CSC(N)=N1)c1cc(-c3cccnc3F)ccc1O2 | nM | 0.3 |
| NC1=N[C@@]2(CO1)c1cc(-c3ccc(F)nc3)ccc1Oc1cnc(C3CCOCC3)cc12 | nM | 33.7 |
| CC1(C)C=C(c2cc3c(cn2)Oc2ccc(-c4ccc(F)nc4)cc2[C@@]32COC(N)=N2)CCO1 | nM | 2.8 |
| CC1(C#Cc2cncc(-c3ccc4c(c3)[C@@]3(COC(N)=N3)c3cc(C5=CCCOC5)ncc3O4)c2)COC1 | nM | 2.5 |

Sourced from patent US8883782B2
